# log10 IC50 per record follows
# TARGET_ENTITY: indoleamine 2, 3-dioxygenase (IDO1) in IFN-γ/LPS stimulated human monocyte-derived dendritic cells (MDDC) (Homo sapiens)
# Construct: host or cells: human monocyte-derived dendritic cells stimulated with IFN-γ and LPS
# Sequence (P14902 whole entry): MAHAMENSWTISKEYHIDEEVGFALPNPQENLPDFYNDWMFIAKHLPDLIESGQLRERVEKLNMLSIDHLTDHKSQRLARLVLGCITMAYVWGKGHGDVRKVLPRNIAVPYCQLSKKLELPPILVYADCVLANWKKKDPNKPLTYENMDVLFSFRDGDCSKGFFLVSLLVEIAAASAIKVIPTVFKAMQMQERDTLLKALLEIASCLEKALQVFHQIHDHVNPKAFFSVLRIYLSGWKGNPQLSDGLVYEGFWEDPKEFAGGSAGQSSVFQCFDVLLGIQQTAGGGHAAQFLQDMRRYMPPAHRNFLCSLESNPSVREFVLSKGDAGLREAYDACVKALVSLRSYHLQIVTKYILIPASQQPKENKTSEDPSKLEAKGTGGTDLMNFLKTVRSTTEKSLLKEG
# PROTOCOL_TEXT: IDOi MDDC assay (kynurenine by mass spectrometry)
# Format: cell-based
# MEASUREMENT_CONTEXT: human MDDC stimulated with IFN-γ and LPS, 2 days, kynurenine by MS; read-out: pXC50 MDDC (converted)
Short version: log10 scale, IC50, nM.

> print(dat)
                                   compound  measured
1  CN(Cc1cccc2c1COB2O)C(=O)CNc1nonc1C(=NO)Nc1ccc(F)c(Br)c1 [Compound 5, 2,2,2-trifluoroacetate]      2.10
2  O=C(NCCNc1nonc1C(=NO)Nc1ccc(F)c(Br)c1)c1cccc2c1B(O)OC2      2.00

# input Reported log10 IC50 for ON=C(Nc1ccc(F)c(Br)c1)c1nonc1Nc1ccc(B(O)O)cc1 : what is it?
# output 2.80

# input Now the same for O=C(NCCNc1nonc1C(=NO)Nc1ccc(F)c(Br)c1)c1ccc2c(c1)B(O)OCC2
# output 3.10

# input Now the same for O=C(NCCNc1nonc1C(=NO)Nc1ccc(F)c(Br)c1)c1ccc2c(c1)COB2O
# output 1.90
